# System: HOP-92 NSCLC
# Assay Remarks: NCI-60 one-dose screen, 48 h
# Cond: 10 µM unless noted
This is part of a sample that, as a whole, favours compounds with a hit. Of some 83,000 tested, about 20% had one in any assay. Activity calls are given as the source filed them. How the source made its calls: active means growth percent below 10; inactive means the rest.
API: response.call in True = active, False = inactive

Take a look at these entries with their results.
O=[N+]([O-])c1ccc(-c2cn3nc(-c4c[nH]c5ccccc45)sc3n2)cc1 ... False
COc1cc(OC)c(/C=C/C(=O)c2c(O)cc(OC)c(C3CCN(C)CC3)c2OC)c(OC)c1 ... True
C=Cc1cnc(Nc2ccc(OC)cc2)nc1NCCCNC(=O)C1CCC1 ... False
CCN1C(=O)N(CC)C2C1NC(=S)N2/N=C/c1ccc(OC)cc1 (stereo not drawn) ... False
O=S(=O)(Oc1ccc(Br)cc1)c1ccc(Cl)cc1 ... False
COc1ccc2c(c1)c(/C(O)=C1\COC(=O)C1=O)cn2Cc1ccc(F)cc1 ... False
Cc1n[nH]c2ccc(Br)cc2c1=O ... False
COc1ccc(-c2nc3c(N)c(CO)cnc3s2)cc1 ... False

Enquiry: Kindly provide the recorded test outcome for the following molecule: `CS(=O)(=O)c1ccc(NC(=O)c2ccccc2)nc1`
Return: False

Enquiry: Tell me the assay call for `CN1C(=O)/C(=C/c2ccc(C(=O)Nc3ncc(Cc4cccc(Cl)c4)s3)cc2)SC1=S` please.
Return: False

Enquiry: Which outcome was entered for the molecule `COc1ccc(C(=S)N2CCN(c3ccc(Cl)cc3)CC2)cc1` in this test?
Return: False

Enquiry: Please share the test call associated with `O=C1c2ccccc2C(=O)C1c1ccc(Br)cc1` .
Return: False
